# Procedure summary: reduction of polyQ htt aggregates in cells – imaging, exon1htt(103Q)mCFP cells, high-content imaging, primary screen (AID 483);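 also: compound exposure lasted 3 days before fixation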
# Measurement context: exon1htt(103Q)mCFP cell line, aggregate imaging, at 2 µM; stronger effect = higher value
Known inhibition of aggregation of a selection of molecules

[
  {
    "Molecule": "Cc1cc(NC(=O)COc2cccc3cccnc23)no1",
    "Units of measure": "%",
    "inhibition of aggregation": 11.9
  },
  {
    "Molecule": "Cc1ccnc(NC(=O)C2CCCN(S(=O)(=O)c3cnc[nH]3)C2)c1 (stereo unspecified)",
    "Units of measure": "%",
    "inhibition of aggregation": 39.4
  },
  {
    "Molecule": "CCOc1ccccc1C(=O)Nn1c(C2CCC2)nc2ccccc2c1=O",
    "Units of measure": "%",
    "inhibition of aggregation": -21.7
  },
  {
    "Molecule": "Cc1nc2nc(-c3cccnc3)nn2c(C)c1Cl",
    "Units of measure": "%",
    "inhibition of aggregation": -5.4
  },
  {
    "Molecule": "O=C(O)c1ccc(CSc2ncn[nH]2)cc1",
    "Units of measure": "%",
    "inhibition of aggregation": -12.6
  },
  {
    "Molecule": "CC1CCCN(C(=O)CN2CCN(C(=O)c3ccco3)CC2)C1 (stereo unspecified)",
    "Units of measure": "%",
    "inhibition of aggregation": 20.8
  }
]

====

# Procedure summary: inhibitors of TNFa-induced NFkB p65 translocation, primary screen, imaging, HUVEC, MLSMR starter and 10KST1 sets (AID 438);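 also: compound added about 3h40 before a 20 min TNFalpha stimulation; signal is the nuclear over cytoplasmic p65 intensity ratio per well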
# Measurement context: HUVEC TNFa-induced p65 nuclear translocation; at 2 µM, stronger effect = higher value, 0% TNFa-plus-vehicle, 100% no-TNFa wells
Attribute measured: inhibition (%)

[
  {
    "Compound": "O=C(Nc1cccc2ccccc12)c1ccc(Br)o1",
    "Attribute measured": "inhibition",
    "Observed measurement": 5.6
  },
  {
    "Compound": "COc1ccc(NS(=O)(=O)c2coc(C(N)=O)c2)cc1Cl",
    "Attribute measured": "inhibition",
    "Observed measurement": -6.3
  },
  {
    "Compound": "CC(=O)N1CCC2(CC1)CC(=O)c1cc(OCC(=O)NCc3ccc(C)cc3)ccc1O2",
    "Attribute measured": "inhibition",
    "Observed measurement": -4.7
  },
  {
    "Compound": "C/C(NC1CCCC1)=C(/C#N)C(N)=O",
    "Attribute measured": "inhibition",
    "Observed measurement": -23.5
  },
  {
    "Compound": "CC(=O)OCC(=O)c1ccc2ccn(C(C)=O)c2c1",
    "Attribute measured": "inhibition",
    "Observed measurement": 1.6
  },
  {
    "Compound": "O=C1NCC(COCc2ccccc2)O1 (configuration not stated)",
    "Attribute measured": "inhibition",
    "Observed measurement": -3
  },
  {
    "Compound": "O=C(c1cc2nc(-c3ccco3)cc(C(F)(F)F)n2n1)N1CCN(c2ccccn2)CC1",
    "Attribute measured": "inhibition",
    "Observed measurement": -10.5
  },
  {
    "Compound": "COc1ccc(-c2nnc(SCC(=O)N3CCCCC3)o2)cc1OC",
    "Attribute measured": "inhibition",
    "Observed measurement": -1.6
  },
  {
    "Compound": "CCOC(=O)c1c(N)nn(C(=O)C(C)C)c1-c1ccccc1",
    "Attribute measured": "inhibition",
    "Observed measurement": -2.1
  },
  {
    "Compound": "c1ccc(-c2nc3cnccn3c2Nc2ccc3c(c2)OCCO3)cc1",
    "Attribute measured": "inhibition",
    "Observed measurement": -36.1
  },
  {
    "Compound": "COc1ccc(-c2ccc(CCC(=O)O)n2NC(=O)c2cccs2)cc1",
    "Attribute measured": "inhibition",
    "Observed measurement": -3.5
  },
  {
    "Compound": "O=C(CCCn1c(=O)[nH]c2ccsc2c1=O)N1CCN(c2ccccn2)CC1",
    "Attribute measured": "inhibition",
    "Observed measurement": -5.2
  },
  {
    "Compound": "Nc1ccc(-n2c(N)c(C(=O)NCc3ccc4c(c3)OCO4)c3nc4ccccc4nc32)cc1",
    "Attribute measured": "inhibition",
    "Observed measurement": -17.4
  },
  {
    "Compound": "CCOCCCNC(=O)C(c1ccccc1)N(Cc1ccc2c(c1)OCO2)C(=O)CNC(C)=O (configuration not stated)",
    "Attribute measured": "inhibition",
    "Observed measurement": 10.9
  },
  {
    "Compound": "O=C(Cn1c(C(=O)NCC2CCCO2)cc2sccc21)c1ccccc1 (configuration not stated)",
    "Attribute measured": "inhibition",
    "Observed measurement": -13.4
  },
  {
    "Compound": "FC(F)Oc1cccc2cccnc12",
    "Attribute measured": "inhibition",
    "Observed measurement": -5.8
  },
  {
    "Compound": "Nc1nnc(-c2cn(-c3ccccc3)nc2-c2ccccc2)o1",
    "Attribute measured": "inhibition",
    "Observed measurement": -12.5
  },
  {
    "Compound": "COCCNC(=O)c1cc2c(-c3ccccc3F)nn(C)c2s1",
    "Attribute measured": "inhibition",
    "Observed measurement": -5.4
  },
  {
    "Compound": "Cc1ccnc(NC(=O)C2CCCN(S(=O)(=O)c3cnc[nH]3)C2)c1 (configuration not stated)",
    "Attribute measured": "inhibition",
    "Observed measurement": -2.4
  },
  {
    "Compound": "CCn1c(SCC(=O)Nc2nc(C)cs2)nnc1-c1ccco1",
    "Attribute measured": "inhibition",
    "Observed measurement": 0.4
  },
  {
    "Compound": "COC(=O)Cn1c2ccccc2c2nc(C)sc21",
    "Attribute measured": "inhibition",
    "Observed measurement": 11.4
  },
  {
    "Compound": "Cc1cc(C)n(CC(=O)NC2CCCCC2)n1",
    "Attribute measured": "inhibition",
    "Observed measurement": -0.6
  },
  {
    "Compound": "CCOc1ccccc1-n1c(SCC(=O)NCc2ccco2)nnc1-c1ccncc1",
    "Attribute measured": "inhibition",
    "Observed measurement": 8.9
  },
  {
    "Compound": "CCc1nnc(NC(=O)c2ccc(S(=O)(=O)NC3CCCCC3)cc2)s1",
    "Attribute measured": "inhibition",
    "Observed measurement": 0.4
  },
  {
    "Compound": "O=C(NCc1cccs1)C(Cc1ccccc1)n1cccc1 (configuration not stated)",
    "Attribute measured": "inhibition",
    "Observed measurement": -6.3
  },
  {
    "Compound": "CCn1c(SCC(=O)Nc2ccc3c(c2)OCO3)nc2c(c1=O)SC(C)C2 (configuration not stated)",
    "Attribute measured": "inhibition",
    "Observed measurement": 9.6
  },
  {
    "Compound": "CC(C)CN(CC(C)C)C(=O)C12CCC(C)(C(=O)C1)C2(C)C (configuration not stated)",
    "Attribute measured": "inhibition",
    "Observed measurement": -10.4
  },
  {
    "Compound": "Cc1ccc2c(c1C)NC(C(=O)O)C1CC=CC21 (configuration not stated)",
    "Attribute measured": "inhibition",
    "Observed measurement": 1.6
  },
  {
    "Compound": "COc1ccccc1-n1c(SCC(N)=O)nnc1-c1ccccc1",
    "Attribute measured": "inhibition",
    "Observed measurement": 19.3
  },
  {
    "Compound": "CCCc1cc(=O)n2[nH]c(-c3ccc(Br)cc3)cc2n1",
    "Attribute measured": "inhibition",
    "Observed measurement": 1.7
  },
  {
    "Compound": "COc1ccc(C2(C(=O)Nc3c(C)n(C)n(-c4ccccc4)c3=O)CCCC2)cc1OC",
    "Attribute measured": "inhibition",
    "Observed measurement": 1.6
  },
  {
    "Compound": "CC(C)(C)OC(=O)NC(CCNC=C1C(=O)OC(C)(C)OC1=O)C(=O)O (configuration not stated)",
    "Attribute measured": "inhibition",
    "Observed measurement": 7.2
  },
  {
    "Compound": "CCC(C)(C)NC(=O)C(OC(=O)c1ccco1)c1ccccc1OC (configuration not stated)",
    "Attribute measured": "inhibition",
    "Observed measurement": -6.2
  },
  {
    "Compound": "Cc1cc(C(=O)Nc2sc3c(c2C#N)CCCCC3)cs1",
    "Attribute measured": "inhibition",
    "Observed measurement": 6
  },
  {
    "Compound": "CCC1Cc2c(nc3c4c(nc(N5CCOCC5)c(C#N)c24)NC(C)=N3)O1 (configuration not stated)",
    "Attribute measured": "inhibition",
    "Observed measurement": 0.8
  },
  {
    "Compound": "COc1ccc(OC)c(C(=O)c2nc3c(n2O)CCCCC3)c1",
    "Attribute measured": "inhibition",
    "Observed measurement": -1.1
  },
  {
    "Compound": "O=C(CSc1nc2ccccc2c(=O)n1Cc1ccco1)NCc1ccccc1",
    "Attribute measured": "inhibition",
    "Observed measurement": -6.1
  },
  {
    "Compound": "COC(=O)Nc1ccc(S(=O)(=O)N2CCCCCC2)cc1",
    "Attribute measured": "inhibition",
    "Observed measurement": -2.5
  },
  {
    "Compound": "Cc1cc(=O)n2[nH]c(-c3ccc(Cl)cc3)cc2n1",
    "Attribute measured": "inhibition",
    "Observed measurement": -2.9
  },
  {
    "Compound": "CCOC(=O)N1CCN(Cc2ccccc2F)CC1",
    "Attribute measured": "inhibition",
    "Observed measurement": -3.8
  },
  {
    "Compound": "COc1ccc(-n2nc3cc(C)c(N)c(Br)c3n2)cc1",
    "Attribute measured": "inhibition",
    "Observed measurement": -6.8
  },
  {
    "Compound": "CS(=O)(=O)N(CC(=O)Nc1ccc2c(c1)OCO2)Cc1ccc(Cl)cc1",
    "Attribute measured": "inhibition",
    "Observed measurement": 8.9
  },
  {
    "Compound": "CCOC(=O)C1CCN(C(=O)Nc2ccc3nc(C)c(C)nc3c2)CC1",
    "Attribute measured": "inhibition",
    "Observed measurement": 2
  },
  {
    "Compound": "CC(=O)NCCn1ccc2ccccc21",
    "Attribute measured": "inhibition",
    "Observed measurement": 14.1
  },
  {
    "Compound": "COc1ccc(Cc2nn3c(-c4cc(OC)c(OC)c(OC)c4)nnc3s2)cc1",
    "Attribute measured": "inhibition",
    "Observed measurement": 7.6
  },
  {
    "Compound": "O=C(Nc1ccc(N2C(=O)C3C4C=CC(C4)C3C2=O)cc1)Nc1cccnc1 (configuration not stated)",
    "Attribute measured": "inhibition",
    "Observed measurement": 0
  },
  {
    "Compound": "COc1cc(NC(=O)Nc2cccc(C(C)=O)c2)cc(OC)c1OC",
    "Attribute measured": "inhibition",
    "Observed measurement": -9.3
  }
]
